Where do the numbers come from? From paper PMC6792352.

# Tested on: GH3-TRE-Luc cell line
# Condition Parameters: read-out: AC50 (uM) modified / 1000; Tox21_110001=Tox21_112323; viability, 1 nM T3 present, 24 h
Quantity: CC50 (µM)
Write the answer as a number in µM, unit excluded.

Ask: Lookup: CC50 / GH3-TRE-Luc cell line / O=C1OC2(c3ccccc31)c1cc(Br)c(O)c(Br)c1Oc1c2cc(Br)c(O)c1Br [Eosin]
Reply: 9.05

###

# Assay Text: in vitro
# Condition Parameters: rat, gh3-tre-luc cells, AC50 (uM) modified / 1000
Where a name gives a salt, the structure may show the parent alone.
Quantity: CC50 at 24 h

Worked cases, CC50 at 24 h given:
Compound: O=CC=C(c1ccccc1)c1ccccc1
CC50 at 24 h: 42.2 µM

Compound: CCOC(=O)CC(C)=O [Ethyl acetoacetate]
CC50 at 24 h: > 90 µM

Compound: CO/N=C(\C(=O)N[C@@H]1C(=O)N2C(C(=O)O)=C(C[N+]3(C)CCCC3)CS[C@H]12)c1csc(N)n1 [Cefepime chloride hydrochloride hydrate]
CC50 at 24 h: > 50 µM

Compound: CC(C)c1ncc([N+](=O)[O-])n1C
CC50 at 24 h: > 50 µM

Compound: COC(=O)C1=C(C)NC(C)=C(C(=O)OCCN2CCN(C(c3ccccc3)c3ccccc3)CC2)C1c1cccc([N+](=O)[O-])c1 (centres unmarked) [Manidipine dihydrochloride]
CC50 at 24 h: 9.06 µM

Compound: O=C(O)[C@H](CC(=O)N1C[C@H]2CCCC[C@H]2C1)Cc1ccccc1 [Mitiglinide calcium dihydrate]
CC50 at 24 h: > 50 µM

Compound: Cc1cc(C)c(/C=C2\C(=O)Nc3ccccc32)[nH]1
CC50 at 24 h: > 50 µM

Compound: CCOC(=O)CC(C)C [Ethyl isovalerate]
CC50 at 24 h: > 90 µM

Ask: Requested read-out: CC50 at 24 h. Entry: O=C(N/N=C/c1ccc([N+](=O)[O-])o1)c1ccc(O)cc1 [Nifuroxazide]
Reply: > 20 µM

Ask: Requested read-out: CC50 at 24 h. Entry: CC/C(=C(/CC)c1ccc(OP(=O)(O)O)cc1)c1ccc(OP(=O)(O)O)cc1 [Diethylstilbestrol diphosphate]
Reply: > 50 µM

Ask: Requested read-out: CC50 at 24 h. Entry: O=C(O)CCC(=O)Nc1ccc(S(=O)(=O)Nc2nccs2)cc1
Reply: > 20 µM

Ask: Requested read-out: CC50 at 24 h. Entry: Cc1nn(-c2cc(NS(C)(=O)=O)c(Cl)cc2Cl)c(=O)n1C(F)F
Reply: > 90 µM

Ask: Requested read-out: CC50 at 24 h. Entry: CCc1ccc(C=O)cc1
Reply: > 90 µM

Ask: Requested read-out: CC50 at 24 h. Entry: CCCCCCCCCCCCC(=O)O
Reply: > 90 µM

###

# Tested on: GH3-TRE-Luc cell line
# Condition Parameters: read-out: AC50 (uM) modified / 1000; Tox21_110001=Tox21_300602; viability, 1 nM T3 present, 24 h
Quantity: CC50 (µM)
Write the answer as a number in µM, unit excluded.

Ask: Requested read-out: CC50. Entry: O=C1CN(/N=C/c2ccc([N+](=O)[O-])o2)C(=O)N1
Reply: 70.6
